# System: HeLa cells
# Measurement notes: Cytotoxicity in uninfected cell cultures
# Type: cell-based
# Test context: cell morphology
The following molecules are listed with their measured Cytotoxicity Minimum cytotoxic concentration values.

Please review the following examples before continuing.
Nc1ncnc2c1ncn2C[C@H](O)CO [(S)-DHPA] ... >250 µM
Nc1ccccc1C(=O)n1c(-c2ccc(S(=O)(=O)O)cc2)nc2ccccc21 [Compound 1] ... ≥20 µg/mL
O=C(c1cccc(O)c1)n1c(-c2ccc(S(=O)(=O)O)cc2)nc2ccccc21 [Compound 6] ... >100 µg/mL
C=CC(=O)n1c(-c2ccc(S(=O)(=O)O)cc2)nc2ccccc21 [Compound 13] ... >100 µg/mL
CCCCC(=O)n1c(-c2ccc(S(=O)(=O)O)cc2)nc2ccccc21 [Compound 17] ... >100 µg/mL
O=C(c1ccc(O)cc1O)n1c(-c2ccc(S(=O)(=O)O)cc2)nc2ccccc21 [Compound 7] ... >100 µg/mL

## Task What value of Cytotoxicity Minimum cytotoxic concentration on HeLa cells does CCCCCCCC/C=C/CCCCCCCC(=O)n1c(-c2ccc(S(=O)(=O)O)cc2)nc2ccccc21 [Compound 18] have?
## Result >100 µg/mL

## Task What about this molecule? Cc1ccccc1C(=O)n1c(-c2ccc(S(=O)(=O)O)cc2)nc2ccccc21 [Compound 10]
## Result >100 µg/mL

## Task What about this molecule? O=C(c1ccc(Cl)cc1)n1c(-c2ccc(S(=O)(=O)O)cc2)nc2ccccc21 [Compound 5]
## Result >100 µg/mL

---

# Tested on: Aspergillus niger
# Measurement notes: MIC by tube dilution method
# Type: cell-based
# Test context: observed, A. niger, 25 °C 7 d
Marks after values point to notes of the source that are not given here.
Test readout: pMICan

Please review the following examples before continuing.
OC(Cn1cncn1)(Cn1cncn1)c1ccc(F)cc1F [Fluconazole, fluconazole, reference compound] ... 2.64**
Cc1ccc(C(=O)n2c(-c3ccc(S(=O)(=O)O)cc3)nc3ccccc32)cc1 [Compound 11] ... 0.89
Nc1ccccc1C(=O)n1c(-c2ccc(S(=O)(=O)O)cc2)nc2ccccc21 [Compound 1] ... 1.50
O=C(c1ccccc1O)n1c(-c2ccc(S(=O)(=O)O)cc2)nc2ccccc21 [Compound 16] ... 1.50
Cc1ccccc1C(=O)n1c(-c2ccc(S(=O)(=O)O)cc2)nc2ccccc21 [Compound 10] ... 1.20

## Task What value of pMICan on Aspergillus niger does Nc1ccc(C(=O)n2c(-c3ccc(S(=O)(=O)O)cc3)nc3ccccc32)cc1 [Compound 3] have?
## Result 1.50

## Task What about this compound? CCCCCCCCCCCCCCCC(=O)n1c(-c2ccc(S(=O)(=O)O)cc2)nc2ccccc21 [Compound 19]
## Result 1.61

## Task What about this compound? O=C(c1ccc(Cl)cc1)n1c(-c2ccc(S(=O)(=O)O)cc2)nc2ccccc21 [Compound 5]
## Result 1.22

## Task What about this compound? COc1ccc(C(=O)n2c(-c3ccc(S(=O)(=O)O)cc3)nc3ccccc32)cc1 [Compound 8]
## Result 1.21

---

The following molecules are listed with their measured pMICab values.
# Test system: S. aureus, B. subtilis and E. coli
# Measurement notes: Average antibacterial activity
# Type: cell-based
# Test context: average antibacterial activity (pMICsa + pMICbs + pMICec)/3
Number only, please.

C=CC(=O)n1c(-c2ccc(S(=O)(=O)O)cc2)nc2ccccc21 ... 2.02
CCCCCCCCCCCCCCCC(=O)n1c(-c2ccc(S(=O)(=O)O)cc2)nc2ccccc21 ... 2.02

## Task Suppose we examine the molecule `Cc1ccc(C(=O)n2c(-c3ccc(S(=O)(=O)O)cc3)nc3ccccc32)cc1` ; what pMICab value has been reported?
## Result 2.05

## Task What about this molecule? `Nc1ccc(C(=O)n2c(-c3ccc(S(=O)(=O)O)cc3)nc3ccccc32)cc1`
## Result 2.00

## Task What about this molecule? `O=C(c1ccc(O)cc1O)n1c(-c2ccc(S(=O)(=O)O)cc2)nc2ccccc21`
## Result 2.32

## Task What about this molecule? `Cc1ccc(S(=O)(=O)n2c(-c3ccc(S(=O)(=O)O)cc3)nc3ccccc32)cc1`
## Result 1.74

## Task What about this molecule? `O=C(c1cccc(O)c1)n1c(-c2ccc(S(=O)(=O)O)cc2)nc2ccccc21`
## Result 2.22

## Task What about this molecule? `C=C(C)C(=O)n1c(-c2ccc(S(=O)(=O)O)cc2)nc2ccccc21`
## Result 1.84

## Task What about this molecule? `O=C(c1ccc([N+](=O)[O-])cc1)n1c(-c2ccc(S(=O)(=O)O)cc2)nc2ccccc21`
## Result 2.43

## Task What about this molecule? O=C(O)c1cn(C2CC2)c2cc(N3CCNCC3)c(F)cc2c1=O [Ciprofloxacin, ciprofloxacin, reference compound]
## Result 2.61

---

# Test system: Aspergillus niger
# Measurement notes: MIC by tube dilution method
# Format: cell-based
# Test context: observed, A. niger, 25 °C 7 d
Test readout: pMICan
Number only, please.

## Task Suppose we examine the molecule O=C(c1ccc(O)cc1O)n1c(-c2ccc(S(=O)(=O)O)cc2)nc2ccccc21 [Compound 7] ; what pMICan value has been reported?
## Result 1.22

---

The following molecules are listed with their measured pMICab values.
# Test system: S. aureus, B. subtilis and E. coli
# Measurement notes: Average antibacterial activity
# Format: cell-based
# Test context: average antibacterial activity (pMICsa + pMICbs + pMICec)/3
Number only, please.

O=C(c1ccccc1O)n1c(-c2ccc(S(=O)(=O)O)cc2)nc2ccccc21 [Compound 16] ... 2.15

## Task What value of pMICab on S. aureus, B. subtilis and E. coli does O=C(c1ccccc1Cl)n1c(-c2ccc(S(=O)(=O)O)cc2)nc2ccccc21 [Compound 4] have?
## Result 2.11

## Task What about this molecule? CCCCCCCC/C=C/CCCCCCCC(=O)n1c(-c2ccc(S(=O)(=O)O)cc2)nc2ccccc21 [Compound 18]
## Result 2.11

## Task What about this molecule? Cc1ccccc1C(=O)n1c(-c2ccc(S(=O)(=O)O)cc2)nc2ccccc21 [Compound 10]
## Result 2.10

---

# System: Aspergillus niger
# Measurement notes: MIC by tube dilution method
# Type: cell-based
# Test context: observed, A. niger, 25 °C 7 d
Test readout: pMICan
Number only, please.

Please review the following examples before continuing.
CCCCCCCC/C=C/CCCCCCCC(=O)n1c(-c2ccc(S(=O)(=O)O)cc2)nc2ccccc21 ... 1.63
O=C(c1ccccc1)n1c(-c2ccc(S(=O)(=O)O)cc2)nc2ccccc21 ... 1.48
O=C(c1cccnc1)n1c(-c2ccc(S(=O)(=O)O)cc2)nc2ccccc21 ... 1.48

Attention now shifts to the item below.
## Task Suppose we examine the compound `O=C(c1cccc(O)c1)n1c(-c2ccc(S(=O)(=O)O)cc2)nc2ccccc21` ; what pMICan value has been reported?
## Result 1.20
